Some compounds, each annotated with its measured IC50.
System: Calpain activity in SH-SY5Y cells
Test: SH-SY5Y + AMC fluorescence assay (Suc-LLVY-AMC substrate)
Type: cell-based
Conditions: read-out: SH-SY5Y + AMC IC50
MEASURED QUANTITY: IC50

> print(dat)
                                   compound                  target.under.test     reported
1  NC(=O)C(=O)C(Cc1ccccc1)NC(=O)c1cn(C(F)F)nc1-c1cnccn1 (stereo not shown) [Compound 581]  Calpain activity in SH-SY5Y cells  10 to 25 µM
2  Cc1nc(-c2ccccc2)c(C(=O)N[C@@H](CCc2ccccc2)C(=O)C(N)=O)o1 [Compound 386]  Calpain activity in SH-SY5Y cells  10 to 25 µM
3  NC(=O)C(=O)C(Cc1ccccc1)NC(=O)c1nsnc1-c1cccnc1 (stereo not shown) [Compound 377]  Calpain activity in SH-SY5Y cells  10 to 25 µM
4  NC(=O)C(=O)C(Cc1ccccc1)NC(=O)c1cn(C(F)F)nc1-c1cccc2c1OC(F)(F)O2 (stereo not shown) [Compound 546]  Calpain activity in SH-SY5Y cells      < 10 µM

---

Biological target: Human Calpain 2/NS1 (Homo sapiens, UniProt P17655)
Sequence (P17655 whole entry): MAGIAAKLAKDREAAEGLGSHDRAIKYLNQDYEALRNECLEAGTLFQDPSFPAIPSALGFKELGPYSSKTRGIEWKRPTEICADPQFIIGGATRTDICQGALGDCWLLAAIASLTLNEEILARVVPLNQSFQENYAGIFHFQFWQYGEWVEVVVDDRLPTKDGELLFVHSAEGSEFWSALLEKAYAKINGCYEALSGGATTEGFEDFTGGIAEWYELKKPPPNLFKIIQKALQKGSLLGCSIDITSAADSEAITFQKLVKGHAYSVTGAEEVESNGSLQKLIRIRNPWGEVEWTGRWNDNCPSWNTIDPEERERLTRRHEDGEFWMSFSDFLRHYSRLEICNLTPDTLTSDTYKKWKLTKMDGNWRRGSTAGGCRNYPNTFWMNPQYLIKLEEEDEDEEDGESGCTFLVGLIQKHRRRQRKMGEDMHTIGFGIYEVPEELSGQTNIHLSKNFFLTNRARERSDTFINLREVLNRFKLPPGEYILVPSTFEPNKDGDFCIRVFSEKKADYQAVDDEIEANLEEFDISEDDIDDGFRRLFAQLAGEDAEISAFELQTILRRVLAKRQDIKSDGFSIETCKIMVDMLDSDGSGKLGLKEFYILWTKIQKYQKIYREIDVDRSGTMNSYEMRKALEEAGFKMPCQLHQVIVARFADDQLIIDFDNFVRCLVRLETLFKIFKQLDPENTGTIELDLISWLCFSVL
Sequence (P04632 whole entry partner): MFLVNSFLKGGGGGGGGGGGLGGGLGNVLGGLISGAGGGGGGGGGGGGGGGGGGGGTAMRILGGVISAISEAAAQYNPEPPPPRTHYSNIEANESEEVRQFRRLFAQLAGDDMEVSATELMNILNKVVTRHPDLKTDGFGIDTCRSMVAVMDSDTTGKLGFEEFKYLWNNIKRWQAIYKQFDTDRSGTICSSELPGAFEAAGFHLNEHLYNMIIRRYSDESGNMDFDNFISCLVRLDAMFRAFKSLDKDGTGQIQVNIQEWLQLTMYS
Test: Calpain inhibition continuous fluorescence (FRET) assay, Human Calpain 2/NS1
Format: biochemical
Details: read-out: Human Calpain 2/NS1 IC50
pIC50: −log10 of the molar value.
Some compounds, each annotated with its measured pIC50.
MEASURED QUANTITY: pIC50

> print(dat)
                                    compound                         target.under.test      reported
 1  COc1cccc(-c2nn(C)cc2C(=O)NC(Cc2ccccc2)C(=O)C(N)=O)c1F (stereo not drawn)  Human Calpain 2/NS1 (Homo sapiens, UniProt P17655)        > 5.52
 2  NC(=O)C(=O)[C@H](Cc1ccccc1)NC(=O)c1nsnc1-c1ccccc1  Human Calpain 2/NS1 (Homo sapiens, UniProt P17655)        > 5.52
 3  NC(=O)C(=O)C(Cc1ccccc1)NC(=O)c1cn(C2CC2)nc1-c1ccc(C(F)(F)F)nc1 (stereo not drawn)  Human Calpain 2/NS1 (Homo sapiens, UniProt P17655)        > 5.52
 4  NC(=O)C(=O)C(Cc1ccccc1)NC(=O)c1cn(C(F)F)nc1-c1cccc2c1OCCO2 (stereo not drawn)  Human Calpain 2/NS1 (Homo sapiens, UniProt P17655)        > 5.52
 5  Cn1cc(C(=O)NC(Cc2ccccc2)C(=O)C(N)=O)c(-c2cccc3ccccc23)n1 (stereo not drawn)  Human Calpain 2/NS1 (Homo sapiens, UniProt P17655)        > 5.52
 6  COc1cccc(-c2oncc2C(=O)NC(Cc2ccccc2)C(=O)C(N)=O)c1F (stereo not drawn)  Human Calpain 2/NS1 (Homo sapiens, UniProt P17655)        > 5.52
 7  Cn1cc(C(=O)NC(Cc2ccccc2)C(=O)C(N)=O)c(-c2coc3ccccc23)n1 (stereo not drawn)  Human Calpain 2/NS1 (Homo sapiens, UniProt P17655)        > 5.52
 8  NC(=O)C(=O)C(Cc1ccccc1)NC(=O)c1nsnc1-c1cccc(F)c1 (stereo not drawn)  Human Calpain 2/NS1 (Homo sapiens, UniProt P17655)        > 5.52
 9  NC(=O)C(=O)C(Cc1ccccc1)NC(=O)c1cn(C(F)F)nc1-c1cccc2ccccc12 (stereo not drawn)  Human Calpain 2/NS1 (Homo sapiens, UniProt P17655)        > 5.52
10  Cc1cccc(-c2nsnc2C(=O)NC(Cc2ccccc2)C(=O)C(N)=O)c1F (stereo not drawn)  Human Calpain 2/NS1 (Homo sapiens, UniProt P17655)        > 5.52
11  Cn1cc(C(=O)NC(Cc2ccccc2)C(=O)C(N)=O)c(-c2ccc3c(c2)OCCCO3)n1 (stereo not drawn)  Human Calpain 2/NS1 (Homo sapiens, UniProt P17655)        > 5.52
12  NC(=O)C(=O)C(Cc1ccccc1)NC(=O)c1cn(C(F)F)nc1-c1cccc2cnccc12 (stereo not drawn)  Human Calpain 2/NS1 (Homo sapiens, UniProt P17655)        > 5.52
13  CCCC[C@H](NC(=O)c1cn(C)nc1-c1ccccc1)C(=O)C(N)=O  Human Calpain 2/NS1 (Homo sapiens, UniProt P17655)        > 5.52
14  Cn1cc(C(=O)NC(Cc2ccccc2)C(=O)C(N)=O)c(-c2ccc(F)cc2)n1 (stereo not drawn)  Human Calpain 2/NS1 (Homo sapiens, UniProt P17655)        > 5.52
15  Cc1cc(C(=O)NC(Cc2ccccc2)C(=O)C(N)=O)n(-c2ccnc(C#N)n2)n1 (stereo not drawn)  Human Calpain 2/NS1 (Homo sapiens, UniProt P17655)        > 5.52
16  NC(=O)C(=O)C(CCc1ccccc1)NC(=O)c1nsnc1-c1ccccc1 (stereo not drawn)  Human Calpain 2/NS1 (Homo sapiens, UniProt P17655)        > 5.52
17  Cc1cc(C(=O)NC(Cc2ccccc2)C(=O)C(N)=O)n(-c2ncccc2C)n1 (stereo not drawn)  Human Calpain 2/NS1 (Homo sapiens, UniProt P17655)        < 5.00
18  NC(=O)C(=O)C(Cc1ccccc1)NC(=O)c1c(Cl)cnn1-c1ncccn1 (stereo not drawn)  Human Calpain 2/NS1 (Homo sapiens, UniProt P17655)        > 5.52
19  CCCCC(NC(=O)c1nsnc1-c1ccccc1)C(=O)C(N)=O (stereo not drawn)  Human Calpain 2/NS1 (Homo sapiens, UniProt P17655)        > 5.52
20  Cn1cc(C(=O)N[C@@H](Cc2ccccc2)C(=O)C(=O)NCC(N)=O)c(-c2ccccc2)n1  Human Calpain 2/NS1 (Homo sapiens, UniProt P17655)        > 5.52
21  Cn1cc(C(=O)NC(Cc2ccccc2)C(=O)C(N)=O)c(-c2cccc3ncccc23)n1 (stereo not drawn)  Human Calpain 2/NS1 (Homo sapiens, UniProt P17655)        > 5.52
22  NC(=O)C(=O)[C@H](Cc1ccccc1)NC(=O)c1cc(C(F)(F)F)nn1-c1ccccc1  Human Calpain 2/NS1 (Homo sapiens, UniProt P17655)        > 5.52
23  Cn1cc(C(=O)NC(Cc2ccccc2)C(=O)C(N)=O)c(-c2ccoc2)n1 (stereo not drawn)  Human Calpain 2/NS1 (Homo sapiens, UniProt P17655)        > 5.52
24  Cn1cc(C(=O)NC(Cc2ccccc2)C(=O)C(N)=O)c(-c2c(F)cccc2F)n1 (stereo not drawn)  Human Calpain 2/NS1 (Homo sapiens, UniProt P17655)        > 5.52
25  Cc1nc(-c2ccccc2F)c(C(=O)N[C@H](Cc2ccccc2)C(=O)C(N)=O)o1  Human Calpain 2/NS1 (Homo sapiens, UniProt P17655)        > 5.52
26  NC(=O)C(=O)C(Cc1ccccc1)NC(=O)c1c(C(F)(F)F)cnn1-c1ncccn1 (stereo not drawn)  Human Calpain 2/NS1 (Homo sapiens, UniProt P17655)  5.00 to 5.52
27  NC(=O)C(=O)C(Cc1ccccc1)NC(=O)c1nsnc1-c1ccccc1F (stereo not drawn)  Human Calpain 2/NS1 (Homo sapiens, UniProt P17655)        > 5.52
28  Cn1cc(C(=O)NC(Cc2ccccc2)C(=O)C(N)=O)c(C2CCCCC2)n1 (stereo not drawn)  Human Calpain 2/NS1 (Homo sapiens, UniProt P17655)        > 5.52
29  Cc1nc(-c2ccccc2)c(C(=O)N[C@@H](Cc2ccccc2)C(O)C(N)=O)o1 (stereo partly drawn)  Human Calpain 2/NS1 (Homo sapiens, UniProt P17655)        < 5.00
30  Cc1nc(-c2cccc3c2OC(F)(F)O3)c(C(=O)NC(Cc2ccccc2)C(=O)C(N)=O)o1 (stereo not drawn)  Human Calpain 2/NS1 (Homo sapiens, UniProt P17655)        > 5.52
31  Cn1cc(C(=O)NC(Cc2ccccc2)C(=O)C(N)=O)c(-c2cccc(C(F)(F)F)c2F)n1 (stereo not drawn)  Human Calpain 2/NS1 (Homo sapiens, UniProt P17655)        > 5.52
32  COCCOCCOc1ccc(-n2nc(C)cc2C(=O)NC(Cc2ccccc2)C(=O)C(N)=O)cc1 (stereo not drawn)  Human Calpain 2/NS1 (Homo sapiens, UniProt P17655)        > 5.52
33  NC(=O)C(=O)C(Cc1ccccc1)NC(=O)c1cnoc1-c1cccc(F)c1 (stereo not drawn)  Human Calpain 2/NS1 (Homo sapiens, UniProt P17655)        > 5.52

---

Some compounds, each annotated with its measured Interaction Distances P2-Phe233.
Target: human calpain 9 (Homo sapiens)
Construct: human calpain 9, residues 27-347, was over expressed in E. coli BL21 (DE3); hexa-histidine (N); made in house; host or cells: E. coli BL21 (DE3)
Sequence (O14815 27-347): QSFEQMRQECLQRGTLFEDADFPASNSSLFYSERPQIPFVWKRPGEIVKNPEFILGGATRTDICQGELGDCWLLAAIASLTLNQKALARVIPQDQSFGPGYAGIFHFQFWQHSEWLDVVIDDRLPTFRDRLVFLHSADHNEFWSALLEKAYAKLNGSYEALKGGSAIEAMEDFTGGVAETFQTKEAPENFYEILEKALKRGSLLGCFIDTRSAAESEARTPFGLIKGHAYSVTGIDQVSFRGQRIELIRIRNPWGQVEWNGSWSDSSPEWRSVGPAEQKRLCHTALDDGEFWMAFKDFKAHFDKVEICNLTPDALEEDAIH
Experiment: Calpain binding: crystal structure interaction distances, human calpain 9
Settings: non-polar interactions with human calpain 9
MEASURED QUANTITY: Interaction Distances P2-Phe233

> print(dat)
                  compound.structure.string               target.under.test  reported
1  Cn1cc(C(=O)N[C@@H](Cc2ccccc2)C(=O)C(N)=O)c(-c2ccccc2)n1  human calpain 9 (Homo sapiens)     3.3 Å
2  CCCC[C@H](NC(=O)c1oc(C)nc1-c1ccccc1)C(=O)C(N)=O  human calpain 9 (Homo sapiens)     3.3 Å
3  NC(=O)C(=O)[C@H](Cc1ccccc1)NC(=O)c1nsnc1-c1ccccc1  human calpain 9 (Homo sapiens)     4.1 Å
4  NC(=O)C(=O)[C@H](Cc1ccccc1)NC(=O)c1snnc1-c1ccccc1  human calpain 9 (Homo sapiens)     4.4 Å
